Cited source: patent US10654834B2

Each entry below carries its reported EC50.
Biological target: mouse TGR5 receptor (Mus musculus, UniProt Q80SS6)
Construct: host or cells: HEK293-EBNA (293 c18, ATCC CRL10852)
Sequence (Q80SS6 whole entry): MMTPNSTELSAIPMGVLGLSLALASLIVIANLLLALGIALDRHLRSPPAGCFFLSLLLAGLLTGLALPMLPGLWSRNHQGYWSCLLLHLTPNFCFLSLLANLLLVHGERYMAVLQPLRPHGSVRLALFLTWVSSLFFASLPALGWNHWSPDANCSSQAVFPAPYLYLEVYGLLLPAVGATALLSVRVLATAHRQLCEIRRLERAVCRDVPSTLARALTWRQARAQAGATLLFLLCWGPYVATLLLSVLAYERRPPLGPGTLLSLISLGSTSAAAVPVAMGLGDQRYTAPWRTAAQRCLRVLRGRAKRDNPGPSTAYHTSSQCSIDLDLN
Test: Mouse TGR5 HTRF cAMP production assay (HEK293-EBNA cells, Cisbio cAMP HiRange kit)
Assay type: cell-based
Details: HEK293-EBNA cells overexpressing mouse TGR5, HTRF cAMP assay
measured_quantity: EC50

compound=O=C(CCCC1CCN(c2cc(N3CCC[C@H]3C(=O)NCCc3ccc(C(F)(F)F)cc3)nc(C(F)(F)F)n2)CC1)NCCCS(=O)(=O)O assay_system="mouse TGR5 receptor (Mus musculus, UniProt Q80SS6)" measured_quantity=EC50 value_observed="< 100 nM"
compound=N#Cc1ccc(CCNC(=O)[C@@H]2CCN2c2cc(N3CCC(CCNC(=O)NCCOCCNC(=N)N)CC3)nc(C(F)(F)F)n2)cc1 assay_system="mouse TGR5 receptor (Mus musculus, UniProt Q80SS6)" measured_quantity=EC50 value_observed="< 100 nM"
compound=N#Cc1ccc(CCNC(=O)[C@@H]2CCCN2c2cc(-c3ccc(CO)cc3)cc(C(F)(F)F)n2)cc1 assay_system="mouse TGR5 receptor (Mus musculus, UniProt Q80SS6)" measured_quantity=EC50 value_observed="< 100 nM"
compound="O=C(CCCC1CCN(c2cc(N3CCC[C@H]3C(=O)NCCc3ccc(C(F)(F)F)cc3)nc(C(F)(F)F)n2)CC1)NCCNc1ncnc2c1ncn2[C@@H]1O[C@H](CO)C(O)C1O (some centres unmarked)" assay_system="mouse TGR5 receptor (Mus musculus, UniProt Q80SS6)" measured_quantity=EC50 value_observed="< 100 nM"
compound=N#Cc1ccc(CCNC(=O)[C@@H]2CCN2c2cc(N3CCC(CCNC(=O)NCCOCCNC(=O)NCCS(=O)(=O)O)CC3)nc(C(F)(F)F)n2)cc1 assay_system="mouse TGR5 receptor (Mus musculus, UniProt Q80SS6)" measured_quantity=EC50 value_observed="< 100 nM"
compound=O=C(O)CC[C@@H](NC(=O)CCCC1CCN(c2cc(N3CC[C@H]3C(=O)NCCc3ccc(C(F)(F)F)cc3)nc(C(F)(F)F)n2)CC1)C(=O)O assay_system="mouse TGR5 receptor (Mus musculus, UniProt Q80SS6)" measured_quantity=EC50 value_observed="< 100 nM"
compound=CCOC(=O)CCNC(=O)NCCC1CCN(c2cc(N3CC[C@H]3C(=O)NCCc3ccc(C#N)cc3)nc(C(F)(F)F)n2)CC1 assay_system="mouse TGR5 receptor (Mus musculus, UniProt Q80SS6)" measured_quantity=EC50 value_observed="< 100 nM"
compound=N#Cc1ccc(CCNC(=O)[C@@H]2CCCN2c2cc(N3CCC(CCNS(=O)(=O)CCNC(=O)[C@@H](N)CS(=O)(=O)O)CC3)nc(C(F)(F)F)n2)cc1 assay_system="mouse TGR5 receptor (Mus musculus, UniProt Q80SS6)" measured_quantity=EC50 value_observed="< 100 nM"

====

Target: human TGR5 receptor (Homo sapiens, UniProt Q8TDU6)
Sequence (Q8TDU6 whole entry): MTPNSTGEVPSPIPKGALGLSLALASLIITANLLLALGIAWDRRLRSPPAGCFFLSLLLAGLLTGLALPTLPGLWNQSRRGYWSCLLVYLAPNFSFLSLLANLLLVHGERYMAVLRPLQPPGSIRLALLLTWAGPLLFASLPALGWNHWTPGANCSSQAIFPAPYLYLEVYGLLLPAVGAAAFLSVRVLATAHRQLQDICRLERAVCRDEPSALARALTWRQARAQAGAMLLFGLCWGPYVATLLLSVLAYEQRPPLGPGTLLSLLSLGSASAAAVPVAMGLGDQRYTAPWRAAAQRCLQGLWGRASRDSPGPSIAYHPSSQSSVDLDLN
Test: Human TGR5 cAMP production assay (hTGR5-CHO cells, DiscoveRx cAMP XS+ kit)
Conditions: luminescent cAMP assay, read-out: Human TGR5 Lum. cAMP Activity (EC50)
pEC50: −log10 of the molar value.
measured_quantity: pEC50

compound=N#Cc1ccc(CCNC(=O)[C@@H]2CCCN2c2cc(Oc3ccccc3)nc(C(F)(F)F)n2)cc1 assay_system="human TGR5 receptor (Homo sapiens, UniProt Q8TDU6)" measured_quantity=pEC50 value_observed="6.00 to 7.00"
compound=N#Cc1ccc(CCNC(=O)[C@@H]2CCCN2c2cc(N3CCC(CCNS(=O)(=O)CCNc4ncc(C(=O)O)cn4)CC3)nc(C(F)(F)F)n2)cc1 assay_system="human TGR5 receptor (Homo sapiens, UniProt Q8TDU6)" measured_quantity=pEC50 value_observed="> 7.00"
compound=O=C(CCCC1CCN(c2cc(N3CCC[C@H]3C(=O)NCCc3ccc(C(F)(F)F)cc3)nc(C(F)(F)F)n2)CC1)NCCS(=O)(=O)O assay_system="human TGR5 receptor (Homo sapiens, UniProt Q8TDU6)" measured_quantity=pEC50 value_observed="> 7.00"
compound="N#Cc1ccc(CCNC(=O)C2CCN2c2cc(N3CCC(CO)CC3)nc(C(F)(F)F)n2)cc1 (centres unmarked)" assay_system="human TGR5 receptor (Homo sapiens, UniProt Q8TDU6)" measured_quantity=pEC50 value_observed="> 7.00"
compound=COC(=O)C(=O)N1CCN(c2cc(N3CCC[C@@H](C(=O)NCCc4ccc(C(F)(F)F)cc4)C3)nc(C(F)(F)F)n2)CC1 assay_system="human TGR5 receptor (Homo sapiens, UniProt Q8TDU6)" measured_quantity=pEC50 value_observed="4.52 to 6.00"
compound=CN(CCS(=O)(=O)O)c1c(NCCC2CCN(c3cc(N4CC[C@H]4C(=O)NCCc4ccc(C#N)cc4)nc(C(F)(F)F)n3)CC2)c(=O)c1=O assay_system="human TGR5 receptor (Homo sapiens, UniProt Q8TDU6)" measured_quantity=pEC50 value_observed="> 7.00"
compound=N#Cc1ccc(CCNC(=O)[C@@H]2CC(F)(F)CN2c2cc(N3CCC(CCNC(=O)NCCS(=O)(=O)O)CC3)nc(C(F)(F)F)n2)cc1 assay_system="human TGR5 receptor (Homo sapiens, UniProt Q8TDU6)" measured_quantity=pEC50 value_observed="6.00 to 7.00"
compound=COCC1CCN(c2cc(N3CCC[C@@H](C(=O)NCCc4ccc(C#N)cc4)C3)nc(C(F)(F)F)n2)CC1 assay_system="human TGR5 receptor (Homo sapiens, UniProt Q8TDU6)" measured_quantity=pEC50 value_observed="> 7.00"
compound=Nc1cc(N2CCC[C@@H](C(=O)NCCc3ccc(C(F)(F)F)cc3)C2)nc(C(F)(F)F)n1 assay_system="human TGR5 receptor (Homo sapiens, UniProt Q8TDU6)" measured_quantity=pEC50 value_observed="6.00 to 7.00"
compound=N#Cc1ccc(CCNC(=O)[C@@H]2CCCN2c2cc(N3CCN(CCO)CC3)nc(C(F)(F)F)n2)cc1 assay_system="human TGR5 receptor (Homo sapiens, UniProt Q8TDU6)" measured_quantity=pEC50 value_observed="6.00 to 7.00"
compound=N#Cc1ccc(CCNC(=O)[C@@H]2CCCN2c2cc(N3CCC(CCCC(=O)NCCNc4cc(C(=O)O)ncn4)CC3)nc(C(F)(F)F)n2)cc1 assay_system="human TGR5 receptor (Homo sapiens, UniProt Q8TDU6)" measured_quantity=pEC50 value_observed="> 7.00"
compound=N#Cc1ccc(CCNC(=O)[C@@H]2CCCN(c3cc(N4CCC(CCO)CC4)nc(C(F)(F)F)n3)C2)cc1 assay_system="human TGR5 receptor (Homo sapiens, UniProt Q8TDU6)" measured_quantity=pEC50 value_observed="> 7.00"
compound=N#Cc1ccc(CCNC(=O)[C@@H]2CCCN2c2cc(N3CCC(CCCC(=O)NCCC(=O)O)CC3)nc(C(F)(F)F)n2)cc1 assay_system="human TGR5 receptor (Homo sapiens, UniProt Q8TDU6)" measured_quantity=pEC50 value_observed="> 7.00"
compound=N#Cc1ccc(CCNC(=O)[C@@H]2CCCN2c2cc(N3CCC(CCNC(=O)[C@@H](N)CS(=O)(=O)O)CC3)nc(C(F)(F)F)n2)cc1 assay_system="human TGR5 receptor (Homo sapiens, UniProt Q8TDU6)" measured_quantity=pEC50 value_observed="> 7.00"

====

Experiment: Pharmacokinetic profile in mice after oral gavage
Assay type: in vivo, mouse
Details: mouse; fasted male Hilltop mice, 10 mg/kg oral gavage, plasma; read-out: Cmax
Each entry below carries its reported Cmax.
measured_quantity: Cmax (ng/mL)

smiles_code=N#Cc1ccc(CCNC(=O)[C@@H]2CCCN2c2cc(N3CCC(CCNS(=O)(=O)CCNC(=O)[C@@H](N)CS(=O)(=O)O)CC3)nc(C(F)(F)F)n2)cc1 value_observed=0.14
smiles_code=N#Cc1ccc(CCNC(=O)[C@@H]2CCN2c2cc(N3CCC(CCCC(=O)NC[C@@H](O)[C@H](O)[C@@H](O)[C@@H](O)CO)CC3)nc(C(F)(F)F)n2)cc1 value_observed=3.2
smiles_code=N=C(N)NCCC[C@H](NC(=O)CCC1CCN(c2cc(N3CC[C@H]3C(=O)NCCc3ccc(C(F)(F)F)cc3)nc(C(F)(F)F)n2)CC1)C(=O)O value_observed=42

====

Biological target: human TGR5 receptor (Homo sapiens)
Experiment: Human TGR5 cAMP production assay (hTGR5-CHO cells, DiscoveRx cAMP XS+ kit)
Conditions: luminescent cAMP assay, read-out: Human TGR5 Lum. cAMP Activity (EC50)
measured_quantity: EC50

smiles_code=O=C(NCCc1ccc(C(F)(F)F)cc1)[C@@H]1CCCN1c1cc(-c2ccccn2)nc(C(F)(F)F)n1 value_observed="100 to 999 nM"
smiles_code=N#Cc1ccc(CCNC(=O)[C@@H]2CCN2c2cc(OC3CCOCC3)nc(C(F)(F)F)n2)cc1 value_observed="100 to 999 nM"
smiles_code=N#Cc1ccc(CCNC(=O)[C@@H]2CCCN2c2cc(-c3ccc(COCC(=O)O)cc3)cc(C(F)(F)F)n2)cc1 value_observed="100 to 999 nM"
smiles_code=CS(=O)(=O)NCCNC(=O)CCCC1CCN(c2cc(N3CCC[C@H]3C(=O)NCCc3ccc(C(F)(F)F)cc3)nc(C(F)(F)F)n2)CC1 value_observed="< 100 nM"
smiles_code=N#Cc1ccc(CCNC(=O)[C@@H]2CCCN2c2cc(N3CCC(CCCC(=O)NCC(N)=O)CC3)nc(C(F)(F)F)n2)cc1 value_observed="< 100 nM"
smiles_code=N#Cc1ccc(CCNC(=O)[C@@H]2CCN2c2cc(N3CCC(CCNS(=O)(=O)CCNC(=O)[C@@H](N)CS(=O)(=O)O)CC3)nc(C(F)(F)F)n2)cc1 value_observed="< 100 nM"
smiles_code=N=C(N)N1CCC(CCCC2CCN(c3cc(N4CC[C@H]4C(=O)NCCc4ccc(C(F)(F)F)cc4)nc(C(F)(F)F)n3)CC2)CC1 value_observed="100 to 999 nM"
smiles_code=N#Cc1ccc(CCNC(=O)[C@@H]2CCCN2c2cc(-c3cc4ccccc4s3)nc(C(F)(F)F)n2)cc1 value_observed="100 to 999 nM"
smiles_code=CN(CCS(=O)(=O)O)C(=O)CCC1CCN(c2cc(N3CC[C@H]3C(=O)NCCc3ccc(C(F)(F)F)cc3)nc(C(F)(F)F)n2)CC1 value_observed="< 100 nM"
smiles_code=O=C(CCCC1CCN(c2cc(N3CCC[C@H]3C(=O)NCCc3cccc(Cl)c3Cl)nc(C(F)(F)F)n2)CC1)NCS(=O)(=O)O value_observed="< 100 nM"
smiles_code=CC(C)(C)OC(=O)NCC1CCN(c2cc(N3CCC[C@H]3C(=O)NCCc3ccc(C#N)cc3)nc(C(F)(F)F)n2)CC1 value_observed="100 to 999 nM"
